assay: Oral absorption of penem in rats with simultaneous administration of cilastatin (Example 3); assay type: in vivo, Sprague-Dawley male rats; settings: rat, plasma, po, 57.1 mg/kg, oral 57.1 mg (titer)/Kg, penem:cilastatin molar ratio 1:1

Molecule	Units	AUC at 2 h
C[C@@H](O)[C@H]1C(=O)N2C(C(=O)O)=C([C@H]3CCCO3)S[C@H]12 [hydrate]	ng·h/mL	25900

* * *

assay: Plasma concentration of penem in rats, oral penem with oral cilastatin (Example 5); type: in vivo, Sprague-Dawley male rats; conditions: rat, plasma, po, 57.1 mg/kg, oral 57.1 mg (titer)/Kg, cilastatin 0 (penem alone)
Measured quantity: AUC at 1.5 h (ng·h/mL)

Compound	Measured quantity	Units	Quantitative result
C[C@@H](O)[C@H]1C(=O)N2C(C(=O)O)=C([C@H]3CCCO3)S[C@H]12 [hydrate]	AUC at 1.5 h	ng·h/mL	4420

* * *

assay: Plasma concentration of penem in rats, oral penem with oral glutathione (Example 6); type: in vivo, Sprague-Dawley male rats; details: rat, plasma, po, 57.1 mg/kg, oral 57.1 mg (titer)/Kg, penem:glutathione molar ratio 11:1, read-out: Highest concentration in plasma
Measured quantity: Cmax (ng/mL)

Molecule	Quantitative result
C[C@@H](O)[C@H]1C(=O)N2C(C(=O)O)=C([C@H]3CCCO3)S[C@H]12 [hydrate]	5030

* * *

experiment: Oral absorption of penem in rats with simultaneous administration of cilastatin (Example 3); format: in vivo, Sprague-Dawley male rats; conditions: rat, plasma, po, 57.1 mg/kg, oral 57.1 mg (titer)/Kg, penem:cilastatin molar ratio 300:1
Measured quantity: AUC at 2 h (ng·h/mL)

Compound	Measured quantity	Units	Quantitative result
C[C@@H](O)[C@H]1C(=O)N2C(C(=O)O)=C([C@H]3CCCO3)S[C@H]12 [hydrate]	AUC at 2 h	ng·h/mL	18300

* * *

Test: Oral absorption of penem in rats with simultaneous administration of cilastatin (Example 3)
Assay type: in vivo, Sprague-Dawley male rats
Conditions: rat, plasma, po, 57.1 mg/kg, oral 57.1 mg (titer)/Kg, penem:cilastatin molar ratio 1000:1
Protocol: Those compositions were separately and orally administered to seven-week-old, Sprague-Dawley male rats to give a dose of 57.1 mg (titer)/Kg in terms of the penem carboxylate. The blood was drawn from the femoral artery via a polyethylene catheter over 2.0 hours after the administration.
Measured quantity: AUC at 2 h (ng·h/mL)

Molecule	Quantitative result
C[C@@H](O)[C@H]1C(=O)N2C(C(=O)O)=C([C@H]3CCCO3)S[C@H]12 [hydrate]	12200

* * *

experiment: Plasma concentration of penem in rats, oral penem with oral cilastatin (Example 5); format: in vivo, Sprague-Dawley male rats; conditions: rat, plasma, po, 57.1 mg/kg, oral 57.1 mg (titer)/Kg, cilastatin 0.0717 mg/Kg oral, read-out: Highest concentration in plasma

Molecule	Units	Cmax
C[C@@H](O)[C@H]1C(=O)N2C(C(=O)O)=C([C@H]3CCCO3)S[C@H]12 [hydrate]	ng/mL	6890

* * *

assay: Plasma concentration and urinary excretion of penem in dogs, capsules with glutathione (Example 7); format: in vivo; details: dog, plasma, po, 75 mg, oral capsule 75 mg (titer), penem:glutathione molar ratio 1.1:1, read-out: Highest concentration in plasma

Molecule	Cmax [ng/mL]
C[C@@H](O)[C@H]1C(=O)N2C(C(=O)O)=C([C@H]3CCCO3)S[C@H]12 [hydrate]	22700

* * *

test: Oral absorption of penem in rats with simultaneous administration of cilastatin (Example 3); format: in vivo, Sprague-Dawley male rats; conditions: rat, plasma, po, 57.1 mg/kg, oral 57.1 mg (titer)/Kg, penem:cilastatin molar ratio 1000:1, read-out: Highest concentration in plasma

Compound	Cmax / ng/mL
C[C@@H](O)[C@H]1C(=O)N2C(C(=O)O)=C([C@H]3CCCO3)S[C@H]12 [hydrate]	6890

* * *

assay: Oral absorption of penem in rats with simultaneous administration of cilastatin (Example 3); type: in vivo, Sprague-Dawley male rats; settings: rat, plasma, po, 57.1 mg/kg, oral 57.1 mg (titer)/Kg, penem:cilastatin molar ratio 300:1, read-out: Highest concentration in plasma
Measured quantity: Cmax (ng/mL)

Molecule	Units	Quantitative result
C[C@@H](O)[C@H]1C(=O)N2C(C(=O)O)=C([C@H]3CCCO3)S[C@H]12 [hydrate]	ng/mL	7890

* * *

assay: Oral absorption of penem in rats with simultaneous administration of cilastatin (Example 3); format: in vivo, Sprague-Dawley male rats; details: rat, plasma, po, 57.1 mg/kg, oral 57.1 mg (titer)/Kg, penem:cilastatin molar ratio 100:1

Compound	AUC at 2 h [ng·h/mL]
C[C@@H](O)[C@H]1C(=O)N2C(C(=O)O)=C([C@H]3CCCO3)S[C@H]12 [hydrate]	21100

* * *

experiment: in vivo; parameters: species or system Sprague-Dawley male rats; conditions: rat, plasma, iv, 11.4 mg/kg, intravenous penem 11.4 mg (titer)/Kg, cilastatin 0.717 mg/Kg oral

Compound	Units	AUC at 1.5 h
C[C@@H](O)[C@H]1C(=O)N2C(C(=O)O)=C([C@H]3CCCO3)S[C@H]12 [hydrate]	ng·h/mL	5670

* * *

assay: Oral absorption of penem in rats with simultaneous administration of cilastatin (Example 3); assay type: in vivo, Sprague-Dawley male rats; conditions: rat, plasma, po, 57.1 mg/kg, oral 57.1 mg (titer)/Kg, penem:cilastatin molar ratio 600:1, vs AUCiv, read-out: Absorption (Oral Absorption Percentage A)
Measured quantity: bioavailability

Molecule	Measured quantity	Result
C[C@@H](O)[C@H]1C(=O)N2C(C(=O)O)=C([C@H]3CCCO3)S[C@H]12 [hydrate]	bioavailability	65.6%

* * *

experiment: Plasma concentration of penem in rats, oral penem with oral cilastatin (Example 5); format: in vivo, Sprague-Dawley male rats; conditions: rat, plasma, po, 57.1 mg/kg, oral 57.1 mg (titer)/Kg, cilastatin 0.0717 mg/Kg oral

Compound	AUC at 1.5 h [ng·h/mL]
C[C@@H](O)[C@H]1C(=O)N2C(C(=O)O)=C([C@H]3CCCO3)S[C@H]12 [hydrate]	12200

* * *

experiment: in vivo; parameters: species or system Sprague-Dawley male rats; conditions: rat, plasma, iv, 11.4 mg/kg, intravenous penem 11.4 mg (titer)/Kg, cilastatin 0.0717 mg/Kg oral
Measured quantity: AUC at 1.5 h (ng·h/mL)

Molecule	Quantitative result
C[C@@H](O)[C@H]1C(=O)N2C(C(=O)O)=C([C@H]3CCCO3)S[C@H]12 [hydrate]	6860

* * *

test: Oral absorption of penem in rats with simultaneous administration of cilastatin (Example 3); assay type: in vivo, Sprague-Dawley male rats; conditions: rat, plasma, po, 57.1 mg/kg, oral 57.1 mg (titer)/Kg, penem:cilastatin molar ratio 2000:1, vs AUCiv, read-out: Absorption (Oral Absorption Percentage A)

Molecule	Units	bioavailability
C[C@@H](O)[C@H]1C(=O)N2C(C(=O)O)=C([C@H]3CCCO3)S[C@H]12 [hydrate]	%	48.1

* * *

test: Plasma concentration of penem in rats, oral penem with oral N-acetyl-L-cysteine (Example 8); format: in vivo, Sprague-Dawley male rats; settings: rat, 57.1 mg/kg, oral 57.1 mg (titer)/Kg, single administration (penem alone), read-out: Highest concentration in plasma

Compound	Cmax (ng/mL)
C[C@@H](O)[C@H]1C(=O)N2C(C(=O)O)=C([C@H]3CCCO3)S[C@H]12 [hydrate]	3290

* * *

Assay: in vivo
Parameters: species or system Sprague-Dawley male rats
Details: rat, plasma, iv, 11.4 mg/kg, intravenous penem 11.4 mg (titer)/Kg, cilastatin 0 (penem alone)
Protocol: The blood was collected during the period of from 0.1 to 1.5 hours after the administration. The concentrations of the free acid of the penem in plasma samples were measured by high performance liquid chromatography (HPLC) to determine the area under the plasma concentration:time curve (AUC).

Molecule	Units	AUC at 1.5 h
C[C@@H](O)[C@H]1C(=O)N2C(C(=O)O)=C([C@H]3CCCO3)S[C@H]12 [hydrate]	ng·h/mL	7170

* * *

assay: Plasma concentration and urinary excretion of penem in dogs, capsules with glutathione (Example 7); type: in vivo; conditions: dog, plasma, po, 75 mg, single administration (penem alone)

Compound	AUC at 4 h
C[C@@H](O)[C@H]1C(=O)N2C(C(=O)O)=C([C@H]3CCCO3)S[C@H]12 [hydrate]	17700 ng·h/mL

* * *

test: Plasma concentration and urinary excretion of penem in dogs, capsules with glutathione (Example 7); format: in vivo; details: dog, urine, po, 75 mg, oral, single administration (penem alone), up to 24 hours, read-out: Excretion into urine

Compound	dose excreted at 24 h
C[C@@H](O)[C@H]1C(=O)N2C(C(=O)O)=C([C@H]3CCCO3)S[C@H]12 [hydrate]	16.7%

* * *

assay: Oral absorption of penem in rats with simultaneous administration of cilastatin (Example 3); type: in vivo, Sprague-Dawley male rats; settings: rat, plasma, po, 57.1 mg/kg, oral 57.1 mg (titer)/Kg, single administration (penem alone), vs AUCiv, read-out: Absorption (Oral Absorption Percentage A)

Compound	Units	bioavailability
C[C@@H](O)[C@H]1C(=O)N2C(C(=O)O)=C([C@H]3CCCO3)S[C@H]12 [hydrate]	%	19.4
